# Target system: T1, human Ror2 (human, UniProt Q01974 34-403, limits assumed)
# T1 construct: also called hROR2; receptor tyrosine kinase-like orphan receptor 2
# T1 sequence (Q01974 34-403 limits assumed): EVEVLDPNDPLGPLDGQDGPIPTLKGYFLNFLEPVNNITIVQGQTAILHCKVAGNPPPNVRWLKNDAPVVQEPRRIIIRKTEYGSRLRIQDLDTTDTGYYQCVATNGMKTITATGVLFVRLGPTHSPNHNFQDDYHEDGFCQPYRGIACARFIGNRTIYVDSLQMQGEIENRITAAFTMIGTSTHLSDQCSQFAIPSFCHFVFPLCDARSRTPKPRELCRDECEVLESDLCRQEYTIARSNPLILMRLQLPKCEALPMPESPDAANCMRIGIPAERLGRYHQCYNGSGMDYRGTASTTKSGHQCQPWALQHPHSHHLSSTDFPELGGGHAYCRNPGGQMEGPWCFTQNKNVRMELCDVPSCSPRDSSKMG
# Measurement notes: ELISA, human Ror2, pH 6.0; note: unit not given here
Consider the following binders; for each one, report its Affinity ELISA pH 6.0.
Give your answer as a number; write no unit.

For this binder ( LC-Y031D (antibody, V domains shown) VH: EVQLQQSGPELVKPGASVKISCKTSGYTFTEYTMHWMKQSHRKSLEWIGGINTNNGGTGYNQKFKGKATLTVDKSSSTAYMELRSLTSEDSAVYFCARGSLYSYGNSYFDYWGQGTLVTVSS VL: QIVLTQSPAIMSASPGEKVTITCSATSSVSDMHWFQQKPGTSPKLWIYGTSNLASGVPARFSGSGSGTSYSLTISRMEAEDAATYYCQQRSSYPFTFGQGTKVEIK ), measured Affinity ELISA pH 6.0 is 0.911

For this binder ( LC-S092V (antibody, V domains shown) VH: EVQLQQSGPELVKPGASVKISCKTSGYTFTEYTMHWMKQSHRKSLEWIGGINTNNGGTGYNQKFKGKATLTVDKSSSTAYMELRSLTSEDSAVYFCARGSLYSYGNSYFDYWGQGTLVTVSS VL: QIVLTQSPAIMSASPGEKVTITCSATSSVSYMHWFQQKPGTSPKLWIYGTSNLASGVPARFSGSGSGTSYSLTISRMEAEDAATYYCQQRSVYPFTFGQGTKVEIK ), measured Affinity ELISA pH 6.0 is 1.23

For this binder ( LC-G049H (antibody, V domains shown) VH: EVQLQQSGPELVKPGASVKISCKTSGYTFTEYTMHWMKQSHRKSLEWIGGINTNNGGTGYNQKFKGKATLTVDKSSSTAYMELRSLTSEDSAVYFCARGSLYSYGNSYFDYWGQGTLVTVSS VL: QIVLTQSPAIMSASPGEKVTITCSATSSVSYMHWFQQKPGTSPKLWIYHTSNLASGVPARFSGSGSGTSYSLTISRMEAEDAATYYCQQRSSYPFTFGQGTKVEIK ), measured Affinity ELISA pH 6.0 is 1.87
